Catalogue of Population Normal (%) values
- Tested on: HEK-293T
- procedure-text: Multiplex assay against HEK293T
- Assay type: toxicity, cell-based
- condition-set: human, 12 h, 1 µM, compound concentration 1 uM, replicate 1
assay-metric: Population Normal (%)

- CN1CCN2c3ccccc3Cc3ccccc3C2C1.Cl (stereo not drawn) [MIANSERIN HYDROCHLORIDE]: 94%
- C[C@H](NC(=O)CNC(=O)c1cccc(Cl)c1)c1ccccc1: 91%
- Nc1nc(CC(=O)Nc2ccc(CCNC[C@H](O)c3ccccc3)cc2)cs1 [MIRABEGRON]: 94%

====

- System: U2OS
- procedure-text: Multiplex assay against U2OS
- Type: toxicity, cell-based
- condition-set: human, 12 h, 1 µM, compound concentration 1 uM, replicate 1
Catalogue of Population Apoptotic (%) values
assay-metric: Population Apoptotic (%)

* COc1c(Nc2ccc(S(C)(=O)=O)nc2C)ncnc1OC1CCN(C(=O)OC(C)C)CC1 | 82
* Cc1cc(-c2ccc3c(c2)CC[C@H]3N2CC3(CCN(C(=O)Cc4cn5cc(C)sc5n4)CC3)C2)ncn1 | 82
* COc1ccc2c(c1OCc1ccccc1)C[C@@H](C(=O)O)N(C(=O)C(c1ccccc1)c1ccccc1)C2 | 82
* CC(C)(C)c1ccc(CSc2cnn(C(C)(C)C)c(=O)c2Cl)cc1 | 79
* N[C@](CC1c2ccccc2Oc2ccccc21)(C(=O)O)[C@H]1C[C@@H]1C(=O)O | 80

====

- System: U2OS
- procedure-text: Multiplex assay against U2OS
- Assay type: toxicity, cell-based
- condition-set: human, 48 h, 10 µM, compound concentration 10 uM, replicate 1
assay-metric: Population Fragmented Nuclei (%)

- COc1ccc2[nH]c(I)c(CCNC(C)=O)c2c1: 21
- COc1cc(C(=O)N2CC[C@@H](O)[C@@H](N)C2)cc2nc(-c3cc4ccccc4n3CC3CC3)n(C)c12.Cl: 29
- CN(C)C(=O)Cn1cc(-c2ccc(-c3nnc4ccccn34)cc2)cn1: 21
- CN1CCN(c2ccc(Nc3c4ccccc4nc4ccccc34)cc2)CC1.Cl.Cl.O: 53
- Nc1nc(-c2ccco2)c2cnn(Cc3ccccc3F)c2n1: 37
- CC(C)C[C@H](CO)Nc1nc(S[C@@H](C)c2ccccc2)nc2nc(N)sc12: 26
- CCC(=O)OCC(=O)[C@@]1(OC(=O)CC)[C@@H](C)C[C@H]2[C@@H]3CCC4=CC(=O)C=C[C@]4(C)[C@@]3(Cl)[C@@H](O)C[C@@]21C [BECLOMETHASONE DIPROPIONATE]: 36
- Cc1nn(C)c2nc(NNC(=O)Nc3cc(Cl)nc(Cl)c3)cc(C(C)C)c12: 24
- COCCCN1CCC(NC(=O)c2cc(Cl)c(N)c3c2OCC3)CC1 [PRUCALOPRIDE]: 17
- O=c1ccc2ccc(OCCCCN3CCN(c4cccc5sccc45)CC3)cc2[nH]1: 45
- Cc1c(Cc2ccc3ccccc3n2)c2cc(F)ccc2n1CC(=O)O: 19
- O=C(NCCNCC(O)COc1ccc(O)cc1)N1CCOCC1.O=C(NCCNCC(O)COc1ccc(O)cc1)N1CCOCC1.O=C(O)/C=C/C(=O)O (stereo unspecified) [XAMOTEROL FUMARATE]: 18
- C=CCN1C[C@H](C(=O)N(CCCN(C)C)C(=O)NCC)C[C@@H]2c3cccc4[nH]cc(c34)C[C@H]21: 30
- CN1C[C@H](C(=O)N[C@]2(C)O[C@@]3(O)[C@@H]4CCCN4C(=O)[C@H](Cc4ccccc4)N3C2=O)C[C@@H]2c3cccc4[nH]cc(c34)C[C@H]21.CS(=O)(=O)O [DIHYDROERGOTAMINE MESYLATE]: 14
- CCCCCCNC(=O)Nc1ccc(S(=O)(=O)Nc2ccc(CCNC[C@H](O)COc3ccc(O)cc3)cc2)cc1: 19
- COc1c(Nc2ccc(S(C)(=O)=O)nc2C)ncnc1OC1CCN(C(=O)OC(C)C)CC1: 24
- CCCCC[C@H](O)/C=C/[C@H]1[C@H](O)CC(=O)[C@@H]1CCCCCCC(=O)O: 13
- Cc1sc2c(c1C)C(c1ccc(Cl)cc1)=N[C@H](CC(=O)OC(C)(C)C)c1nnc(C)n1-2: 23
- C[C@H](NC(=O)CNC(=O)c1cccc(Cl)c1)c1ccccc1: 19
- Cc1ccc(OCC(O)C(C)NC(C)C)c2c1CCC2.Cl (stereo unspecified): 23
- Nc1nc(CC(=O)Nc2ccc(CCNC[C@H](O)c3ccccc3)cc2)cs1: 14
